# Experimental System: T1, 4H3297-bN
# T1 chain: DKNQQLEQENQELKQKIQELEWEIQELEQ
# Assay Protocol: two-hybrid library CCNG1;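 further: natural log of median RNA to DNA barcode read ratio; higher means stronger binding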

Binder: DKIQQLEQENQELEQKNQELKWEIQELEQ [4H2233-bN]
interaction score: -1.34

Binder: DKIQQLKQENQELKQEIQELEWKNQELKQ [4H2760-bN]
interaction score: -1.61

Binder: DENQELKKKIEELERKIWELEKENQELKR [4H1828-bH]
interaction score: -1.01

Binder: DKIQQLKQKIQELEQKIQELKWENQELEQ [4H2859-bN]
interaction score: 0.359

Binder: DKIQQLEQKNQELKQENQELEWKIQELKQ [4H2518-bN]
interaction score: -0.555

Binder: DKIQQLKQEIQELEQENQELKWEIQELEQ [4H2585-bN]
interaction score: -0.64

Binder: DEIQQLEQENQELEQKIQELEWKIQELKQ [4H166-bN]
interaction score: 1.54
